target_desc: MMP-2 (Homo sapiens)
Construct: gift of Prof; Gillian Murphy (Oncology Department, Cambridge University, UK)
Sequence (P08253 110-660): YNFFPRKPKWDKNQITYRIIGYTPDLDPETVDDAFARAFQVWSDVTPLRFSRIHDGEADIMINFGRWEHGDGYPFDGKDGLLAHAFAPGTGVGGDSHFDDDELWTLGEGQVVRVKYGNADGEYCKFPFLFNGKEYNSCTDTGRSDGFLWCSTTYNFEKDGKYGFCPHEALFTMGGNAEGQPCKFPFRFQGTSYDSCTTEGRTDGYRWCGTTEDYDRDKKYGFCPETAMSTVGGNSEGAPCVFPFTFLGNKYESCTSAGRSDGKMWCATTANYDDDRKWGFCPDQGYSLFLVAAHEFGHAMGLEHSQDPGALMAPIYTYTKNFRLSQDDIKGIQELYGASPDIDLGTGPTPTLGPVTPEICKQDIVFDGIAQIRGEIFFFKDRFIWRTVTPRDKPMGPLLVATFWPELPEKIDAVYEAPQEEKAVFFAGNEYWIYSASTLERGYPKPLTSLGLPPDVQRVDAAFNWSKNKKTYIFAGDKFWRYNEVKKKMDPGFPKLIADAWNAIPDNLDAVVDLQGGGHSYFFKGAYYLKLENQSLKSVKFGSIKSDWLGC
test: In vitro fluorometric inhibition assay of MMPs: MMP-2
Type: biochemical
condition_set: Table II, cells marked (*)
experimental_readout: IC50
Kindly write the number and append the unit.

For orientation, consider the following solved cases.
molecule | IC50
COc1ccc(-c2ccc(Sc3ccccc3C(C)C(=O)NO)cc2)cc1 (centres unmarked) [Compound 56a] | 27.2 nM
COc1ccc(-c2ccc(Sc3ccccc3C(=O)O)cc2)cc1 | 62500 nM
COc1ccc(-c2ccc(S(=O)(=O)c3ccccc3CP(=O)(O)O)cc2)cc1 | 384 nM
COc1ccc(-c2ccc(Sc3ccccc3C(C)C(=O)O)cc2)cc1 (centres unmarked) | 159 nM

Quick check: IC50 on MMP-2 (Homo sapiens), item COc1ccc(-c2ccc(Sc3ccccc3CC(=O)O)cc2)cc1 ? 114 nM

---

target_desc: MMP-9 (Homo sapiens, UniProt P14780)
Construct: gift of Prof; Gillian Murphy (Oncology Department, Cambridge University, UK)
Sequence (P14780 107-707 limits assumed): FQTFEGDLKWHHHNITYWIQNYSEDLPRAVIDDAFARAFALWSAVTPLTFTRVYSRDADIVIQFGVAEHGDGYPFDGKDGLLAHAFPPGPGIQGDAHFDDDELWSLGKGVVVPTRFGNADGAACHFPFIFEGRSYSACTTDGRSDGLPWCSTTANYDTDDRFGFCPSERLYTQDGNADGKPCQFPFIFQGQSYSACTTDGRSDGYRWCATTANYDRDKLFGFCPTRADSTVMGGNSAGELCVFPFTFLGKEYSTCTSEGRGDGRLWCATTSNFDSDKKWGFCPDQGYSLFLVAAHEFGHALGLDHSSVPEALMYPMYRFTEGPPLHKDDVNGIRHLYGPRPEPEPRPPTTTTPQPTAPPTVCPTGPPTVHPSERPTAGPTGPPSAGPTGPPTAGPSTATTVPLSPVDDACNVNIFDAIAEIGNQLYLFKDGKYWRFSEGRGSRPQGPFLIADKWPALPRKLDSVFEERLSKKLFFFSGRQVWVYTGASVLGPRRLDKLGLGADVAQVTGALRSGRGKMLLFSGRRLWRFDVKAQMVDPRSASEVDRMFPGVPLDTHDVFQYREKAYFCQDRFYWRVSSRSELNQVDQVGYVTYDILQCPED
test: In vitro fluorometric inhibition assay of MMPs: MMP-9
Assay type: biochemical
condition_set: Table I, cells without (*)
experimental_readout: pIC50
Keep it numeric: pIC50 is minus log10 of the concentration in mol/L.

Here is how some compounds turned out for pIC50.
compound | pIC50
O=C1CC(c2ccccc2S(=O)(=O)c2ccc(-c3ccccc3)cc2)C(=O)N1O (centres unmarked) | 4.33
O=C(O)CCC(C(=O)O)c1ccccc1Sc1ccc(-c2ccccc2)cc1 (centres unmarked) | 4.77
O=C(O)Cc1ccccc1Sc1ccc(-c2ccccc2)cc1 | 5.17

Look up pIC50: O=C(O)CC(C(=O)O)c1ccccc1Sc1ccc(-c2ccccc2)cc1 (centres unmarked) 4.02

I'd like to know its pIC50. The compound in question is O=C1CC(c2ccccc2Sc2ccc(-c3ccccc3)cc2)C(=O)N1O (centres unmarked) 4.46

---

target_desc: MMP-14 (Homo sapiens, UniProt P50281)
Construct: purchased Calbiochem
test: In vitro fluorometric inhibition assay of MMPs: MMP-14
Assay type: biochemical
condition_set: Table III, cells without (*)
experimental_readout: IC50 (µM)
Quick reminder: number only, in µM, skip the unit.

Name the reported IC50 value associated with the compound COc1ccc(Oc2ccc(Sc3ccccc3CC(=O)O)cc2)cc1 297

---

target_desc: MMP-2 (Homo sapiens, UniProt P08253)
Construct: gift of Prof; Gillian Murphy (Oncology Department, Cambridge University, UK)
test: In vitro fluorometric inhibition assay of MMPs: MMP-2
Type: biochemical
condition_set: Table IV
Description: Analysis of the In Vitro Inhibition Activity of Zinc Metalloproteinases: In Vitro Inhibition of MMMPs The human recombinant Progelatinase A (pro-MMP-2), B (pro-MMP-9), MMP-14cd and MMP-16cd, were provided by Prof. […] The inhibition activity of MMP was expressed in relative fluorescence unit (RFU). The percentage of inhibition was calculated using control reactions without inhibitor. […]
The compounds listed here are annotated with their pIC50.
API: returns pIC50 as number; meaning -log10 of concentration in mol/L.

compound | pIC50
COc1ccc(Sc2ccccc2CC(=O)NO)cc1 [Compound 21b] | 5.21

Field: next compound
What measured pIC50 goes with COc1ccc(-c2ccc(Sc3ccccc3CC(=O)NO)cc2)cc1 ? 8.17

---

target_desc: MMP-14 (Homo sapiens)
Construct: purchased Calbiochem
test: In vitro fluorometric inhibition assay of MMPs: MMP-14
Format: biochemical
condition_set: Table III, cells marked (*)
Items are presented alongside their recorded pIC50.
# pIC50 = -log10(concentration in molar units)

compound | reading
COc1ccc(Oc2ccc(S(=O)(=O)c3ccccc3C(=O)NS(C)(=O)=O)cc2)cc1 [Compound 38] | 3.28
COc1ccc(Oc2ccc(Sc3ccccc3C(=O)NS(C)(=O)=O)cc2)cc1 [Compound 8] | 4.10
COc1ccc(Oc2ccc(S(=O)(=O)c3ccccc3CC(=O)NS(C)(=O)=O)cc2)cc1 [Compound 43] | 3.58

The record that follows has no pIC50 shown yet.
Which measured pIC50 value corresponds to COc1ccc(Oc2ccc(Sc3ccccc3CC(=O)NS(C)(=O)=O)cc2)cc1 [Compound 39] ? 3.56

---

Here, each record is paired with measured pIC50 data.
target_desc: MMP-9 (Homo sapiens, UniProt P14780)
Construct: gift of Prof; Gillian Murphy (Oncology Department, Cambridge University, UK)
test: In vitro fluorometric inhibition assay of MMPs: MMP-9
Format: biochemical
condition_set: Table I, cells marked (*)
Please treat pIC50 as minus the base-10 logarithm of the molar concentration.

compound | pIC50
O=C(Cc1ccccc1Sc1ccc(-c2ccccc2)cc1)NO [Compound 21a] | 5.92

Please give the measured pIC50 for this compound: COc1ccc(-c2ccc(Sc3ccccc3CC(=O)NO)cc2)cc1 6.92

Field request: pIC50 | item: O=C(Cc1ccccc1Sc1ccc(-c2ccsc2)cc1)NO 5.95

---

Quick reference for IC50 among some compounds
target_desc: MMP-2 (Homo sapiens, UniProt P08253)
Construct: gift of Prof; Gillian Murphy (Oncology Department, Cambridge University, UK)
test: In vitro fluorometric inhibition assay of MMPs: MMP-2
Assay type: biochemical
condition_set: Table III, cells without (*)
Lab note: write values as number then unit, every time.

Which IC50 is reported for this compound? COc1ccc(Oc2ccc(Sc3ccccc3CC(=O)NO)cc2)cc1 0.568 µM

Requested read-out: IC50. Entry: COc1ccc(Oc2ccc(Sc3ccccc3CC(=O)O)cc2)cc1 20 µM

---

target_desc: MMP-9 (Homo sapiens, UniProt P14780)
Construct: gift of Prof; Gillian Murphy (Oncology Department, Cambridge University, UK)
test: In vitro fluorometric inhibition assay of MMPs: MMP-9
Type: biochemical
condition_set: Table III, cells marked (*)
Below, each entry is listed alongside its reported IC50.
Please give a number only; it is taken to be in µM.

Below, 3 molecules whose answers are already recorded.
chemical_smiles | target_desc | experimental_readout | reading
COc1ccc(Oc2ccc(Sc3ccccc3C(=O)NS(C)(=O)=O)cc2)cc1 | MMP-9 (Homo sapiens, UniProt P14780) | IC50 | 17.8
COc1ccc(Oc2ccc(Sc3ccccc3CC(=O)NS(C)(=O)=O)cc2)cc1 | MMP-9 (Homo sapiens, UniProt P14780) | IC50 | 106
COc1ccc(Oc2ccc(S(=O)(=O)c3ccccc3CC(=O)NS(C)(=O)=O)cc2)cc1 | MMP-9 (Homo sapiens, UniProt P14780) | IC50 | 47.3

Name the reported IC50 value associated with the molecule COc1ccc(Oc2ccc(S(=O)(=O)c3ccccc3C(=O)NS(C)(=O)=O)cc2)cc1 101

---

target_desc: MMP-14 (Homo sapiens, UniProt P50281)
Construct: purchased Calbiochem
test: In vitro fluorometric inhibition assay of MMPs: MMP-14
Format: biochemical
condition_set: Table II, cells without (*)
experimental_readout: IC50

Example compounds with recorded IC50:
compound | target_desc | IC50
COc1ccc(-c2ccc(Sc3ccccc3C(=O)NS(C)(=O)=O)cc2)cc1 | MMP-14 (Homo sapiens, UniProt P50281) | 73.1 µM
COc1ccc(-c2ccc(Sc3ccccc3C(C)C(=O)NS(C)(=O)=O)cc2)cc1 (stereo not shown) | MMP-14 (Homo sapiens, UniProt P50281) | 156 µM
COc1ccc(-c2ccc(Sc3ccccc3CC(=O)NS(C)(=O)=O)cc2)cc1 | MMP-14 (Homo sapiens, UniProt P50281) | 127 µM

Moving on to the next compound.
Provide value of IC50 for this record tested with MMP-14 (Homo sapiens, UniProt P50281): COc1ccc(-c2ccc(S(=O)(=O)c3ccccc3C(=O)NS(C)(=O)=O)cc2)cc1 64.7 µM

---

target_desc: MMP-9 (Homo sapiens, UniProt P14780)
Construct: gift of Prof; Gillian Murphy (Oncology Department, Cambridge University, UK)
test: In vitro fluorometric inhibition assay of MMPs: MMP-9
Assay type: biochemical
condition_set: Table II, cells marked (*)
Measured IC50 by item
Field format: number, assumed µM, no unit text.

compound | target_desc | reading
COc1ccc(-c2ccc(Sc3ccccc3C(=O)O)cc2)cc1 [Compound 47] | MMP-9 (Homo sapiens, UniProt P14780) | 83.5

--- query ---
# query: IC50 of entry COc1ccc(-c2ccc(S(=O)(=O)c3ccccc3CP(=O)(O)O)cc2)cc1 [Compound 86] 2.47
